MEASURED_ON: Human GLP-1R (Homo sapiens)
Sequence (P43220 24-463): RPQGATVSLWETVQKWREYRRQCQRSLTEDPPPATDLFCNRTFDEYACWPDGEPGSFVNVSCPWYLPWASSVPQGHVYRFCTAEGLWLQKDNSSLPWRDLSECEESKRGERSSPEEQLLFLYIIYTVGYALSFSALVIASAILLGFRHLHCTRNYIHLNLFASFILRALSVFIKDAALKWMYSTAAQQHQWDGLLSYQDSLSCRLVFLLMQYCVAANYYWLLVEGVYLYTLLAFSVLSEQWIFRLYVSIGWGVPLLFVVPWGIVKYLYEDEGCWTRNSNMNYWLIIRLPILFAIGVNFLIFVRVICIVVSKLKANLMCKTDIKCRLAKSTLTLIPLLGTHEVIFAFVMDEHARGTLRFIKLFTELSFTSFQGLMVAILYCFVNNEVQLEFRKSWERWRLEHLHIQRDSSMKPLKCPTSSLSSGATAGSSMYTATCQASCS
EXPERIMENT_DESCRIPTION: GLP-1R agonist activity, HTRF cAMP level test in 293A GFP-GLP-1R cells
Method: GLP-1R-mediated agonist activity was determined by cell-based assays using a homogeneous time-resolved fluorescence (i.e., HTRF)-based cAMP detection kit, which measures the level of cAMP in cells. The method was a competitive immunoassay. It enabled direct pharmacological characterization of compounds acting on Gs-coupled receptors in adherent or suspending cells. […] The final DMSO concentration in the buffer mixture was determined to be 1% o. […]
Form field: pEC50 (one value per entry).
As a rule, pEC50 stands for the negative log10 of the concentration, concentration in M.

Solved entries:
compound="O=C(O)c1ccc2nc(CN3CCC(c4cccc(OCc5ccc(C(=O)C6CC6)s5)n4)CC3)n(C[C@@H]3CCO3)c2c1 [Compound 6]" recorded_result=10.52
compound="O=C(O)c1ccc2nc(CN3CCC(c4cccc(OCc5ccc(-c6cncnc6)s5)n4)CC3)n(C[C@@H]3CCO3)c2c1 [Compound 13]" recorded_result=9.33
compound="Cc1cc(C#N)sc1COc1cccc(C2CCN(Cc3nc4ccc(C(=O)O)cc4n3C[C@@H]3CCO3)CC2)n1 [Compound 11]" recorded_result=10.00
compound="O=C(O)c1ccc2nc(CN3CCC(c4cccc(OCc5cc6ccncc6s5)n4)CC3)n(C[C@@H]3CCO3)c2c1 [Compound 10]" recorded_result=10.30
compound="CC(=O)c1cc(COc2cccc(C3CCN(Cc4nc5ccc(C(=O)O)cc5n4C[C@@H]4CCO4)CC3)n2)cs1 [Compound 3]" recorded_result=6.92
compound="CC(=O)c1cc(Cl)c(COc2cccc(C3CCN(Cc4nc5ccc(C(=O)O)cc5n4C[C@@H]4CCO4)CC3)n2)s1 [Compound 5]" recorded_result=9.25
compound="CC(=O)c1csc(COc2cccc(C3CCN(Cc4nc5ccc(C(=O)O)cc5n4C[C@@H]4CCO4)CC3)n2)c1 [Compound 2]" recorded_result=7.05
compound="O=C(O)c1ccc2nc(CN3CCC(c4cccc(OCc5ccc(C(F)(F)F)s5)n4)CC3)n(C[C@@H]3CCO3)c2c1 [Compound 9]" recorded_result=10.10
compound="N#Cc1cc(Cl)c(COc2cccc(C3CCN(Cc4nc5ccc(C(=O)O)cc5n4C[C@@H]4CCO4)CC3)n2)s1 [Compound 7]" recorded_result=10.70
compound="N#Cc1ccc(COc2ccc3c(n2)C2=C(COC3)CN(Cc3nc4ccc(C(=O)O)cc4n3C[C@@H]3CCO3)CC2)s1 [Compound 12]" recorded_result=9.30

The compound listed as CC(=O)c1ccc(COc2cccc(C3CCN(Cc4nc5ccc(C(=O)O)cc5n4C[C@@H]4CCO4)CC3)n2)s1 [Compound 1] has a reported pEC50 of 8.33

The compound listed as N#Cc1sc(COc2cccc(C3CCN(Cc4nc5ccc(C(=O)O)cc5n4C[C@@H]4CCO4)CC3)n2)cc1Cl [Compound 8] has a reported pEC50 of 10.30

The compound listed as N#Cc1ccc(COc2cccc(C3CCN(Cc4nc5ccc(C(=O)O)cc5n4C[C@@H]4CCO4)CC3)n2)s1 [Compound 4] has a reported pEC50 of 9.00

---

Form field: half-life at 1 μM (one value per entry).
EXPERIMENT_DESCRIPTION: Metabolic stability in (human) liver microsomes
Assay type: in vitro ADME
CONDITION_SET: pH 7.4, 0.5 mg/mL microsomal protein, 37° C., 0-45 minutes, LC-MS/MS, read-out: LMS(t1/2 min)
Provide only the numeric value, understood in h.

Solved entries:
molecule="N#Cc1cc(Cl)c(COc2cccc(C3CCN(Cc4nc5ccc(C(=O)O)cc5n4C[C@@H]4CCO4)CC3)n2)s1 [Compound 7]" result_type="half-life at 1 μM" recorded_result=0.354
molecule="CC(=O)c1ccc(COc2cccc(C3CCN(Cc4nc5ccc(C(=O)O)cc5n4C[C@@H]4CCO4)CC3)n2)s1 [Compound 1]" result_type="half-life at 1 μM" recorded_result=1.92
molecule="CC(=O)c1cc(Cl)c(COc2cccc(C3CCN(Cc4nc5ccc(C(=O)O)cc5n4C[C@@H]4CCO4)CC3)n2)s1 [Compound 5]" result_type="half-life at 1 μM" recorded_result=0.622

Now turn to the next molecule.
The molecule listed as N#Cc1ccc(COc2cccc(C3CCN(Cc4nc5ccc(C(=O)O)cc5n4C[C@@H]4CCO4)CC3)n2)s1 [Compound 4] has a reported half-life at 1 μM of 2.21
